Experiment: Inhibition of sheep brain tubulin microtubule assembly by turbidimetry assay
Set-up: species or system Ovis aries
Conditions: read-out: IC50
pIC50: −log10 of the molar value.
Readout label: pIC50

C=C(c1ccc(OC)c(O)c1)c1cc(OC)c(OC)c(OC)c1 :: 5.68
COc1ccc(/C(=C/c2ccc(OC)c(O)c2)c2cc(OC)c(OC)c(OC)c2)cc1 :: 5.11
COc1ccc(/C=C(/c2ccc(OC)cc2)c2cc(OC)c(OC)c(OC)c2)cc1 :: 5.10
COc1ccc(/C=C(/c2ccc(OC)c(O)c2)c2cc(OC)c(OC)c(OC)c2)cc1O :: 5.07
COc1ccc(/C=C(\c2ccc(OC)cc2)c2cc(OC)c(OC)c(OC)c2)cc1 :: 5.09
COCOc1cc(/C=C(/c2ccc(OC)c(OCOC)c2)c2cc(OC)c(OC)c(OC)c2Br)ccc1OC :: 5.10
